# systemTested: beta-catenin/TCF4 engagement (Homo sapiens)
# Construct: expressed in transfected cells; host or cells: HEK293
# Sequence (P35222 1-781): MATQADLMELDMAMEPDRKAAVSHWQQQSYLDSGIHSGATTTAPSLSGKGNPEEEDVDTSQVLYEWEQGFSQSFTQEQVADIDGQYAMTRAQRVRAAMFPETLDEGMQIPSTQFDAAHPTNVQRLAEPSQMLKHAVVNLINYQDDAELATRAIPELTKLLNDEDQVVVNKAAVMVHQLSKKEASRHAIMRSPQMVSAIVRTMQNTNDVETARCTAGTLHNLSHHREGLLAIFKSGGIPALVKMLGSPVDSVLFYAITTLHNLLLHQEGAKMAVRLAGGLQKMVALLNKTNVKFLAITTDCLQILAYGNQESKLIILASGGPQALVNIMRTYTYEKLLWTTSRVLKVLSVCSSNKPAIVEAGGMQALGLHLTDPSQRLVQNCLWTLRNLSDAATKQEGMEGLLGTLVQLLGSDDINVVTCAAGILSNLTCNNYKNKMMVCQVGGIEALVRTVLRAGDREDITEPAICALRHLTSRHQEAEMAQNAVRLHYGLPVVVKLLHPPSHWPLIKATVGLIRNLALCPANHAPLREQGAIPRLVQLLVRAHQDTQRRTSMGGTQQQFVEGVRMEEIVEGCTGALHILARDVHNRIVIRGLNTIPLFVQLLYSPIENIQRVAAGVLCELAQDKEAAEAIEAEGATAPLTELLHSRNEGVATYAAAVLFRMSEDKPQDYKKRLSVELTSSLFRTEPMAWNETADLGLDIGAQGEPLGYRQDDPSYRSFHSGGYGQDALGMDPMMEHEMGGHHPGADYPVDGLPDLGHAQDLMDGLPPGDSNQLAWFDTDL
# experimentSummary: Nano-BRET target engagement assay (B-cat-Halo & TCF4-Luc in HEK293 cells)
# Type: cell-based
# conditionDescription: absolute IC50; read-out: NanoBRET Abs IC50

- compound: "C[C@@H]1NC(=O)[C@H](C)NC(=O)[C@H](CC(=O)O)NC(=O)[C@H](CC(=O)O)NC(=O)C2(CCCC=CCCCOC(=O)N3CC[C@@](C(=O)N[C@@H](Cc4ccsc4)C(=O)N[C@@H](Cc4csc5ccccc45)C(=O)N[C@@H](CCC(N)=O)C(N)=O)(C3)NC(=O)[C@H](CC(N)=O)NC(=O)[C@H](Cc3ccccc3)NC1=O)CCCC=CC[C@]1(CCCN1S(C)(=O)=O)C(=O)N[C@@H](CC(=O)O)C(=O)N[C@@H](CC(C)(C)C)C(=O)N2 (some centres unmarked) [I-1218]"
  IC50: "> 20 µM"
- compound: "CC(=O)N1CCC[C@]12CC=CCCCC1(CCCC=CCCCOC(=O)N3CC[C@@](C(=O)N[C@@H](Cc4ccsc4)C(=O)N[C@@H](Cc4csc5ccccc45)C(=O)N[C@@H](CCC(N)=O)C(N)=O)(C3)NC(=O)[C@H](CC(C)C)NC(=O)[C@H](Cc3ccccc3)NC(=O)[C@H](CCCCNC(=O)COCCOCCNC(=O)C34CC5(C)CC(C)(CC(C)(C5)C3)C4)NC(=O)[C@H](C)NC(=O)[C@H](CC(=O)O)NC(=O)[C@H](CC(=O)O)NC1=O)NC(=O)[C@H](CC(C)(C)C)NC(=O)[C@H](CC(=O)O)NC2=O (some centres unmarked) [I-1476]"
  IC50: "> 20 µM"

----------
# experimentSummary: Solubility in PBS
# Type: physicochemical
# conditionDescription: Solubility (uM)
measure: Solubility (µM)

- compound: "CC[C@H](C)[C@@H]1NC(=O)[C@H](CC(=O)O)NC(=O)[C@]2(CC=CCCCC3(CCCC=CCCCCCC[C@@](C)(C(=O)N[C@@H](Cc4ccccc4)C(=O)N[C@@H](Cc4csc5ccccc45)C(=O)N[C@@H](CCC(N)=O)C(N)=O)NC(=O)[C@H](CCC(N)=O)NC(=O)[C@H](Cc4ccc(-c5ccccc5)cc4)NC(=O)[C@H](C)NC(=O)[C@H](C)NC(=O)[C@H](CCC(=O)O)NC(=O)[C@H](CC(=O)O)NC3=O)NC1=O)CCCN2C(C)=O (stereo partly drawn)"
  reportedMeasurement: 29
- compound: "CC(=O)N1CCC[C@]12CC=CCCCC1(CCCC=CCCCCCC[C@@](C)(C(=O)N[C@@H](Cc3ccccc3)C(=O)N[C@@H](Cc3csc4ccccc34)C(=O)N[C@@H](CCC(N)=O)C(N)=O)NC(=O)[C@H](CCC(N)=O)NC(=O)[C@H](Cc3ccccc3)NC(=O)[C@H](C)NC(=O)[C@H](C)NC(=O)[C@H](Cc3nn[nH]n3)NC(=O)[C@H](CC(=O)O)NC1=O)NC(=O)[C@H](C)NC(=O)[C@H](CC(=O)O)NC2=O (stereo partly drawn)"
  reportedMeasurement: 31
- compound: "CC[C@H](C)[C@@H]1NC(=O)[C@H](CC(=O)O)NC(=O)[C@]2(CC=CCCCC3(CCCC=CCCCCCC[C@@](C)(C(=O)N[C@@H](Cc4ccsc4)C(=O)N[C@@H](Cc4csc5ccccc45)C(=O)N[C@@H](Cc4c[nH]cn4)C(N)=O)NC(=O)[C@H](CC(N)=O)NC(=O)[C@H](Cc4ccccc4)NC(=O)[C@H](C)NC(=O)[C@H](C)NC(=O)[C@H](CN(CC(=O)O)CC(F)(F)F)NC(=O)[C@H](CC(=O)O)NC3=O)NC1=O)CCCN2C(C)=O (stereo partly drawn)"
  reportedMeasurement: 40

----------
# experimentSummary: Solubility in PBS
# Format: physicochemical
Below is a list of entries, each paired with its recorded Solubility value.

- compound: "CC(=O)N1CCC[C@]12CC=CCCCC1(CCCC=CCCCOC(=O)N3CC[C@@](C(=O)N[C@@H](Cc4ccccc4)C(=O)N[C@@H](Cc4csc5ccccc45)C(=O)N[C@@H](CCC(N)=O)C(N)=O)(C3)NC(=O)[C@H](CC(C)C)NC(=O)[C@H](Cc3ccccc3)NC(=O)[C@H](C)NC(=O)[C@H](CCCCNC(C)C)NC(=O)[C@H](CCC(N)=O)NC(=O)[C@H](CC(=O)O)NC1=O)NC(=O)[C@H](C)NC(=O)[C@H](CC(N)=O)NC2=O (some centres unmarked)"
  Solubility: "10 µM"
- compound: "CC(=O)N1CCC[C@]12CC=CCCCC1(CCCC=CCCCCCC[C@@](C)(C(=O)N[C@@H](Cc3ccccc3)C(=O)N[C@@H](Cc3csc4ccccc34)C(=O)N[C@H](C(N)=O)[C@@H](C)O)NC(=O)[C@H](CC(N)=O)NC(=O)[C@H](Cc3ccccc3)NC(=O)[C@H](C)NC(=O)[C@H](C)NC(=O)[C@H](CCC(=O)O)NC(=O)[C@H](CC(=O)O)NC1=O)NC(=O)[C@H](CC(C)C)NC(=O)[C@H](CC(=O)O)NC2=O (some centres unmarked)"
  Solubility: "45 µM"
- compound: "CC[C@H](C)[C@@H]1NC(=O)[C@H](CC(=O)O)NC(=O)[C@]2(CC=CCCCC3(CCCC=CCCCCCC[C@@](C)(C(=O)N[C@@H](Cc4ccccc4)C(=O)N[C@@H](Cc4csc5ccccc45)C(=O)N[C@@H](CCC(N)=O)C(N)=O)NC(=O)[C@H](CCC(N)=O)NC(=O)[C@H](Cc4ccccc4)NC(=O)[C@H](C)NC(=O)[C@H](C)NC(=O)[C@H](CCC(=O)O)NC(=O)[C@H](CC(=O)O)NC3=O)NC1=O)CCCN2S(C)(=O)=O (some centres unmarked) [I-710]"
  Solubility: "45 µM"
- compound: "CC(=O)N1CCC[C@]12CC=CCCCC1(CCCC=CCCCCCC[C@@](C)(C(=O)N[C@@H](Cc3ccsc3)C(=O)N[C@@H](Cc3csc4ccccc34)C(=O)N[C@@H](CCC(N)=O)C(N)=O)NC(=O)[C@H](CC(N)=O)NC(=O)[C@H](Cc3ccccc3)NC(=O)[C@H](C)NC(=O)[C@H](C)NC(=O)[C@H](CCC(=O)O)NC(=O)[C@H](CC(=O)O)NC1=O)NC(=O)[C@H](CC(C)(C)C)NC(=O)[C@H](CC(=O)O)NC2=O (some centres unmarked) [I-682]"
  Solubility: "47 µM"
- compound: "CC(=O)N1CCC[C@]12CC=CCCCC1(CCCC=CCCCCCC[C@@](C)(C(=O)N[C@@H](Cc3ccccc3)C(=O)N[C@@H](Cc3csc4ccccc34)C(=O)N[C@@H](Cc3c[nH]cn3)C(N)=O)NC(=O)[C@H](CCC(N)=O)NC(=O)[C@H](Cc3ccccc3)NC(=O)[C@H](C)NC(=O)[C@H](C)NC(=O)[C@H](CC(=O)O)NC(=O)[C@H](CC(=O)O)NC1=O)NC(=O)[C@H](C)NC(=O)[C@H](CC(=O)O)NC2=O (some centres unmarked) [I-361]"
  Solubility: "46 µM"

----------
# systemTested: beta-catenin/TCF4 engagement (Homo sapiens)
# Construct: expressed in transfected cells; host or cells: HEK293
# Sequence (P35222 1-781): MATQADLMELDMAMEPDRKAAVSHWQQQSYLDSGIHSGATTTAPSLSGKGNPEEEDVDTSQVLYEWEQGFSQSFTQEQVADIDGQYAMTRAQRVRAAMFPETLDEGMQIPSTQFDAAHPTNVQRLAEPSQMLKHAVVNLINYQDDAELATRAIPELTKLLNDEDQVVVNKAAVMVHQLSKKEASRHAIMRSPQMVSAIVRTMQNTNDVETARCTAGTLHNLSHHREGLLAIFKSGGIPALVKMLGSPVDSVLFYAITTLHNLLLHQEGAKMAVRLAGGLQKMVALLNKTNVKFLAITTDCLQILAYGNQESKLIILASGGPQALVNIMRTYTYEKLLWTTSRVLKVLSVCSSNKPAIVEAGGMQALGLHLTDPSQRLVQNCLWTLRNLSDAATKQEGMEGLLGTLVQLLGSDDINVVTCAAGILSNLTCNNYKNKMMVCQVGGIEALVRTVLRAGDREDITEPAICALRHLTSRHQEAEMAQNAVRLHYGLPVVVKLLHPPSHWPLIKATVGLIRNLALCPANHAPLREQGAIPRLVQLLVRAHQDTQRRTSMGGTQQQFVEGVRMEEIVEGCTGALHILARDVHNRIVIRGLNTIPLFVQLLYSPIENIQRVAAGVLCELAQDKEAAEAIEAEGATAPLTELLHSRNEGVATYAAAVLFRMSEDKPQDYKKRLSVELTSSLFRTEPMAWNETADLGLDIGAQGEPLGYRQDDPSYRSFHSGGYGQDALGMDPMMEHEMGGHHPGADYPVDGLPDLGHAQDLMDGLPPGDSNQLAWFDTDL
# experimentSummary: Nano-BRET target engagement assay (B-cat-Halo & TCF4-Luc in HEK293 cells)
# Format: cell-based
# conditionDescription: absolute IC50; read-out: NanoBRET Abs IC50
Each entry below lists one item and its recorded IC50 value.

- molecule: "CC(=O)N1CCC[C@]12CC=CCCCC1(CCCC=CCCCOC(=O)N3CC[C@@](C(=O)N[C@@H](Cc4ccsc4)C(=O)N[C@@H](Cc4csc5ccccc45)C(=O)N[C@@H](CCC(N)=O)C(N)=O)(C3)NC(=O)[C@H](CC(=O)N3CCN(C)CC3)NC(=O)[C@H](Cc3ccccc3)NC(=O)[C@H](C)NC(=O)[C@H](C)NC(=O)[C@H](CC(=O)O)NC(=O)[C@H](CC(=O)O)NC1=O)NC(=O)[C@H](CC(C)(C)C)NC(=O)[C@H](CC(=O)O)NC2=O (stereo partly drawn) [I-1488]"
  IC50: "30.3 µM"
- molecule: "CC(=O)N1CCC[C@]12CC=CCCCC1(CCCC=CCCCOC(=O)N3CC[C@@](C(=O)N[C@@H](Cc4ccc(F)cc4)C(=O)N[C@@H](Cc4csc5ccccc45)C(=O)N[C@@H](C)C(N)=O)(C3)NC(=O)[C@H](CC(C)C)NC(=O)[C@H](Cc3ccccc3)NC(=O)[C@H](C)NC(=O)[C@H](C)NC(=O)[C@H](Cc3cccc(C(=O)O)c3)NC(=O)[C@H](CC(=O)O)NC1=O)NC(=O)[C@H](CC(C)(C)C)NC(=O)[C@H](CC(=O)O)NC2=O (stereo partly drawn) [I-2263]"
  IC50: "4.3 µM"
- molecule: "CC[C@@H]1NC(=O)[C@H](CC(=O)O)NC(=O)[C@]2(CC=CCCCC3(CCCC=CCCCCCC[C@@](C)(C(=O)N[C@@H](Cc4ccccc4)C(=O)N[C@@H](Cc4csc5ccccc45)C(=O)N[C@@H](CCC(N)=O)C(N)=O)NC(=O)[C@H](CC(N)=O)NC(=O)[C@H](Cc4ccccc4)NC(=O)[C@H](C)NC(=O)[C@H](C)NC(=O)[C@H](CC(=O)O)NC(=O)[C@H](CC(=O)O)NC3=O)NC1=O)CCCN2C(C)=O (stereo partly drawn) [I-573]"
  IC50: "33.3 µM"
